Target: IKZF2 (Homo sapiens, UniProt Q96SW2+Q9UKS7)
Sequence (Q9UKS7 whole entry): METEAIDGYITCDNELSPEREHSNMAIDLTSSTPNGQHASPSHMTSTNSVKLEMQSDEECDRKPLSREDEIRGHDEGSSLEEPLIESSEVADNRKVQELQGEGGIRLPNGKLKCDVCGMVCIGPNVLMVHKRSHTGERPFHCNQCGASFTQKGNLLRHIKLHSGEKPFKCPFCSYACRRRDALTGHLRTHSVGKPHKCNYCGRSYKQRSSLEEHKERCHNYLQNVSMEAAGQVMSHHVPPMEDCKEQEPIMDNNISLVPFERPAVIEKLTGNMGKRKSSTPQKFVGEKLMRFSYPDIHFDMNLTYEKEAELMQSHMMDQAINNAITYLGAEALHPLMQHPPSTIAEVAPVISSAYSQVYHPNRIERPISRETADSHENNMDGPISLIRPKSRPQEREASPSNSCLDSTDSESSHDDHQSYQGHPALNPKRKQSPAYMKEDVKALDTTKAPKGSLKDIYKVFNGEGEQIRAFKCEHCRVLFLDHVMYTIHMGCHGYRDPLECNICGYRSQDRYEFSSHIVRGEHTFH
Sequence (Q96SW2 whole entry): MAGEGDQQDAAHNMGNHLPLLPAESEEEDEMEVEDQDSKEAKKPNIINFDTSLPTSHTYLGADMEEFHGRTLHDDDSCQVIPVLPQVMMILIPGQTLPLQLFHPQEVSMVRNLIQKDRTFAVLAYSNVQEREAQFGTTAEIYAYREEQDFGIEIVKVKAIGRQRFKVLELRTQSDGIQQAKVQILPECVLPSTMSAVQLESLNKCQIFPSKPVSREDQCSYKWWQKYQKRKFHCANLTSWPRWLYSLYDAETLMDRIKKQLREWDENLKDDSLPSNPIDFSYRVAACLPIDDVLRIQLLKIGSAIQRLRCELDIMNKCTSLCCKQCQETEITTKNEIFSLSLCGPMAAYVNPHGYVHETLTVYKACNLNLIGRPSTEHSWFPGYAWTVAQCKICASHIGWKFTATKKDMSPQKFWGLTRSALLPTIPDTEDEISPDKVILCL
Sequence (Q16531 whole entry partner): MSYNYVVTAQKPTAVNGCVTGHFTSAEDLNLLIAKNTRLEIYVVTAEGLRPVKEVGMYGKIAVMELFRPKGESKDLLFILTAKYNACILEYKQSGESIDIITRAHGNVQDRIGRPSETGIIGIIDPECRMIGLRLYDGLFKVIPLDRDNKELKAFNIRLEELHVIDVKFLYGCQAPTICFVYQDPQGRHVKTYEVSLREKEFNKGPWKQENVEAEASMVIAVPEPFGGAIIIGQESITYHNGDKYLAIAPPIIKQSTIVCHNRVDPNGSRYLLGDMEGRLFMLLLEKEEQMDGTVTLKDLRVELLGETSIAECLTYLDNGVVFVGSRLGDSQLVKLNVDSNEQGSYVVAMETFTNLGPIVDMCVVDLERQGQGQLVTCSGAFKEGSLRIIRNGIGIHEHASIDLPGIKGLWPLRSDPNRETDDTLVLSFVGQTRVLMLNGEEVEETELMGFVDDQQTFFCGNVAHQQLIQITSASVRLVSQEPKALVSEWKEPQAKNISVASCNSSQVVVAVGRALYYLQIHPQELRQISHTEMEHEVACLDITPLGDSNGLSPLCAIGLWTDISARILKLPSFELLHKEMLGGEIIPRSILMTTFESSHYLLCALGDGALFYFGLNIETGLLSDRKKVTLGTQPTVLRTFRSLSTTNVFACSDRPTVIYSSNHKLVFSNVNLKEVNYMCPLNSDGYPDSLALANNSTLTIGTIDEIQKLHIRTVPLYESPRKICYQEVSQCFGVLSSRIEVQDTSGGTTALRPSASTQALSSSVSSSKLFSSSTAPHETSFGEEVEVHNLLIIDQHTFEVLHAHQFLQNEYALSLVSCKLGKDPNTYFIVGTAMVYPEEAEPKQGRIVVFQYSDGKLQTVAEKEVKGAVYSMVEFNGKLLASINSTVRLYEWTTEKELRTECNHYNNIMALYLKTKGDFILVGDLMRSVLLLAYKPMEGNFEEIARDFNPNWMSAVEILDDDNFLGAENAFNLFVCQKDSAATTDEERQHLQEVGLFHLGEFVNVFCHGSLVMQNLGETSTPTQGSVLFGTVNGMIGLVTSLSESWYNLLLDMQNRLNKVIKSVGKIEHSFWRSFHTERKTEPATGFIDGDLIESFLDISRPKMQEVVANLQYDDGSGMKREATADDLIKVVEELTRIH
Experiment: Prolabel quantification of IKZF2 protein levels in 293GT cells
Assay type: cell-based
Conditions: 24 h, 10 μM, 24 h, 293GT cells; read-out: IKZF2 % protein reduction at 10 μM, 24 h
Items are presented alongside their recorded inhibition at 10 µM.
MEASURED_ENDPOINT: inhibition at 10 µM (%)

molecule="CC(C)Oc1ccc(CN2CCC(c3ccc4c(c3)CN(C3CCC(=O)NC3=O)C4=O)CC2)cn1 (stereo not shown)" reported=70
molecule="O=C1CCC(N2Cc3cc(C4CCN(Cc5cccc6ncnn56)CC4)ccc3C2=O)C(=O)N1 (stereo not shown)" reported=45
molecule="O=C1CCC(N2Cc3cc(C4CCN(Cc5ccc(OC(F)(F)F)cc5)CC4)ccc3C2=O)C(=O)N1 (stereo not shown)" reported=60
molecule="O=C1CCC(N2Cc3cc(C4CCN(Cc5ccc6c(c5)OCCCO6)CC4)ccc3C2=O)C(=O)N1 (stereo not shown)" reported=70

###

Target: GSPT1 (Homo sapiens, UniProt P15170+Q96SW2)
Sequence (P15170 whole entry, one chain of several): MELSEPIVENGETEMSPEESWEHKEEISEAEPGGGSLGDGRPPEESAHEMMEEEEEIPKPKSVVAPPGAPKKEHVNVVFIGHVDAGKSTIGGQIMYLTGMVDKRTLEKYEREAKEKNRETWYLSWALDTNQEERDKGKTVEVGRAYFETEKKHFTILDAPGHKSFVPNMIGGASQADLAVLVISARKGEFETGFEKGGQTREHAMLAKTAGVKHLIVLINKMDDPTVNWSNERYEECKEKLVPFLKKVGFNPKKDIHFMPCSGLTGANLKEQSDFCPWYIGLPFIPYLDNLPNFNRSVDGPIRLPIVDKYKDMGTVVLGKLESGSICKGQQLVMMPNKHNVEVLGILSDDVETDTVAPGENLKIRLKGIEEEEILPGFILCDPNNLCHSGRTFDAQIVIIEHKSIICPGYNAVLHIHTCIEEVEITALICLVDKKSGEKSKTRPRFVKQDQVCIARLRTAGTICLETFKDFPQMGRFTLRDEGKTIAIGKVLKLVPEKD
Test: Prolabel quantification of GSPT1 protein levels in 293GT cells
Type: cell-based
Settings: Prolabel assay, read-out: GSPT1 EC50
MEASURED_ENDPOINT: DC50

compound="CC1(C)CC(c2ccc3c(c2)CN(C2CCC(=O)NC2=O)C3=O)CC(C)(C)N1 (centres unmarked)" reported="> 50 µM"
compound="O=C1CCC(N2Cc3cc(C4CCN(Cc5cc[nH]n5)CC4)ccc3C2=O)C(=O)N1 (centres unmarked)" reported="> 50 µM"
compound="O=C1CCC(N2Cc3cc(C4CCN(Cc5ccc6scnc6c5)CC4)ccc3C2=O)C(=O)N1 (centres unmarked)" reported="> 30 µM"
compound="O=C1CCC(N2Cc3cc(C4CCN(CC(F)(F)F)CC4)ccc3C2=O)C(=O)N1 (centres unmarked)" reported="> 50 µM"
compound="COC(=O)CN1CCC(c2ccc3c(c2)CN(C2CCC(=O)NC2=O)C3=O)CC1 (centres unmarked)" reported="> 50 µM"
compound="O=C1CCC(N2Cc3cc(C4CCN(Cc5cc6n(n5)CCCC6)CC4)ccc3C2=O)C(=O)N1 (centres unmarked)" reported="> 30 µM"
compound="O=C1CCC(N2Cc3cc(C4CCN(Cc5cc(F)c(O)c(F)c5)CC4)ccc3C2=O)C(=O)N1 (centres unmarked)" reported="> 50 µM"
compound="O=C1CCC(N2Cc3cc(C4CCN(Cc5cn(C6CCC6)nn5)CC4)ccc3C2=O)C(=O)N1 (centres unmarked)" reported="> 30 µM"
compound="O=C1CCC(N2Cc3cc(C4CCN(Cc5ccc(Cl)cc5)CC4)ccc3C2=O)C(=O)N1 (centres unmarked)" reported="> 50 µM"
compound="O=C1CCC(N2Cc3cc(C4CCN(Cc5cccn6nccc56)CC4)ccc3C2=O)C(=O)N1 (centres unmarked)" reported="> 30 µM"
compound="Cc1ccc2c(CN3CCC(c4ccc5c(c4)CN(C4CCC(=O)NC4=O)C5=O)CC3)c[nH]c2c1 (centres unmarked)" reported="> 30 µM"

###

Molecular target: IKZF2 (Homo sapiens, UniProt Q96SW2+Q9UKS7)
Assay: Prolabel quantification of IKZF2 protein levels in 293GT cells
Assay type: cell-based
Details: 10 μM, 24 h, 293GT cells; read-out: IKZF2 % protein reduction at 10 μM, 24 h
Items are presented alongside their recorded inhibition at 10 µM.
MEASURED_ENDPOINT: inhibition at 10 µM (%)

compound="O=C1CCC(N2Cc3cc(C4=CCN(Cc5ccccc5)CC4)ccc3C2=O)C(=O)N1 (stereo not drawn)" system_under_test="IKZF2 (Homo sapiens, UniProt Q96SW2+Q9UKS7)" units_symbol=% reported=60
compound="O=C1CCC(N2Cc3cc(C4CCN(Cc5ccc(-c6ccccc6)cc5)CC4)ccc3C2=O)C(=O)N1 (stereo not drawn)" system_under_test="IKZF2 (Homo sapiens, UniProt Q96SW2+Q9UKS7)" units_symbol=% reported=65
compound="COC(=O)CN1CCC(c2ccc3c(c2)CN(C2CCC(=O)NC2=O)C3=O)CC1 (stereo not drawn)" system_under_test="IKZF2 (Homo sapiens, UniProt Q96SW2+Q9UKS7)" units_symbol=% reported=20
compound="O=C1CCC(N2Cc3cc(C4CCN(c5ccccc5)CC4)ccc3C2=O)C(=O)N1 (stereo not drawn)" system_under_test="IKZF2 (Homo sapiens, UniProt Q96SW2+Q9UKS7)" units_symbol=% reported=5
compound="CCN1CCC(c2ccc3c(c2)CN(C2CCC(=O)NC2=O)C3=O)CC1 (stereo not drawn)" system_under_test="IKZF2 (Homo sapiens, UniProt Q96SW2+Q9UKS7)" units_symbol=% reported=60
compound="N#Cc1ccc(CN2CCC(c3ccc4c(c3)CN(C3CCC(=O)NC3=O)C4=O)CC2)cc1 (stereo not drawn)" system_under_test="IKZF2 (Homo sapiens, UniProt Q96SW2+Q9UKS7)" units_symbol=% reported=60
compound="CC(C)(C)c1ccc(CN2CCC(c3ccc4c(c3)CN(C3CCC(=O)NC3=O)C4=O)CC2)cc1 (stereo not drawn)" system_under_test="IKZF2 (Homo sapiens, UniProt Q96SW2+Q9UKS7)" units_symbol=% reported=60
compound="Cc1cccc(CN2CCC(c3ccc4c(c3)CN(C3CCC(=O)NC3=O)C4=O)CC2)c1 (stereo not drawn)" system_under_test="IKZF2 (Homo sapiens, UniProt Q96SW2+Q9UKS7)" units_symbol=% reported=65
compound="COc1ccc(CN2CCC(c3ccc4c(c3)CN(C3CCC(=O)NC3=O)C4=O)CC2)cc1 (stereo not drawn)" system_under_test="IKZF2 (Homo sapiens, UniProt Q96SW2+Q9UKS7)" units_symbol=% reported=45

###

Target: IKZF1 (Homo sapiens, UniProt Q13422+Q96SW2)
Sequence (Q13422 whole entry, one chain of several): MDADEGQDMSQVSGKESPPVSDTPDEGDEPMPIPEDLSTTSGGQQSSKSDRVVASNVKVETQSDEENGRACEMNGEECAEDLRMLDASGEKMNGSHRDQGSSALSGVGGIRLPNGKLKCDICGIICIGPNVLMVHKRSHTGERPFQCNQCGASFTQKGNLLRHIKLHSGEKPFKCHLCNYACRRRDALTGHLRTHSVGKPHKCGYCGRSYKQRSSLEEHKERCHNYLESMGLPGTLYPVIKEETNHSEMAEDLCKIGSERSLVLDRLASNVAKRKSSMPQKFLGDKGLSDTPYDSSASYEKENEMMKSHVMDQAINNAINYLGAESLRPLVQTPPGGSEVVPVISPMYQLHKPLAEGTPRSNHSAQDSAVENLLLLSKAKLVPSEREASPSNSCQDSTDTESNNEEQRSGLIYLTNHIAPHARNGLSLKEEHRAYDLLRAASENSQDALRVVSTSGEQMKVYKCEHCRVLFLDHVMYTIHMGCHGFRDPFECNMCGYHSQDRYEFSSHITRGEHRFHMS
Experiment: Prolabel quantification of IKZF1 protein levels in 293GT cells
Format: cell-based
Conditions: Prolabel assay, read-out: IKZF1 EC50
MEASURED_ENDPOINT: DC50

molecule="O=C1CCC(N2Cc3cc(C4CCN(Cc5cccc(OC(F)F)c5)CC4)ccc3C2=O)C(=O)N1 (stereo not drawn) [Compound I-79]" measured_endpoint=DC50 reported="> 30 µM"
molecule="O=C1CCC(N2Cc3cc(C4CCN(Cc5cnc(N6CCCC6)nc5)CC4)ccc3C2=O)C(=O)N1 (stereo not drawn) [Compound I-142]" measured_endpoint=DC50 reported="> 30 µM"
molecule="O=C1CCC(N2Cc3cc(C4CCN(Cc5cc(F)c(O)c(F)c5)CC4)ccc3C2=O)C(=O)N1 (stereo not drawn) [Compound I-156]" measured_endpoint=DC50 reported="> 50 µM"
molecule="CC(C)Oc1ccc(CN2CCC(c3ccc4c(c3)CN(C3CCC(=O)NC3=O)C4=O)CC2)cn1 (stereo not drawn) [Compound I-285]" measured_endpoint=DC50 reported="> 30 µM"
molecule="CCn1ccc(CN2CCC(c3ccc4c(c3)CN(C3CCC(=O)NC3=O)C4=O)CC2)n1 (stereo not drawn) [Compound I-121]" measured_endpoint=DC50 reported="> 30 µM"
molecule="CCCc1ccc(CN2CCC(c3ccc4c(c3)CN(C3CCC(=O)NC3=O)C4=O)CC2)cc1 (stereo not drawn) [Compound I-75]" measured_endpoint=DC50 reported="> 30 µM"
molecule="NC(=O)c1ccc(CN2CCC(c3ccc4c(c3)CN(C3CCC(=O)NC3=O)C4=O)CC2)cc1 (stereo not drawn) [Compound I-71]" measured_endpoint=DC50 reported="> 30 µM"
molecule="O=C1CCC(N2Cc3cc(C4CCN(CC5CC5)CC4)ccc3C2=O)C(=O)N1 (stereo not drawn) [Compound I-3]" measured_endpoint=DC50 reported="> 30 µM"
molecule="O=C1CCC(N2Cc3cc(C4CCN(Cc5nc6ccsc6c(=O)[nH]5)CC4)ccc3C2=O)C(=O)N1 (stereo not drawn) [Compound I-213]" measured_endpoint=DC50 reported="> 30 µM"
molecule="O=C1CCC(N2Cc3cc(C4CCN(Cc5ccc(CF)cc5)CC4)ccc3C2=O)C(=O)N1 (stereo not drawn) [Compound I-63]" measured_endpoint=DC50 reported="> 30 µM"
molecule="O=C1CCC(N2Cc3cc(C4CCN(CCC(F)(F)F)CC4)ccc3C2=O)C(=O)N1 (stereo not drawn) [Compound I-179]" measured_endpoint=DC50 reported="> 30 µM"
molecule="O=C1CCC(N2Cc3cc(C4CCN(Cc5cccnc5)CC4)ccc3C2=O)C(=O)N1 (stereo not drawn) [Compound I-59]" measured_endpoint=DC50 reported="> 30 µM"
molecule="O=C1CCC(N2Cc3cc(C4CCN(Cc5ccccc5OC(F)F)CC4)ccc3C2=O)C(=O)N1 (stereo not drawn) [Compound I-80]" measured_endpoint=DC50 reported="> 30 µM"
molecule="C[C@H](c1ccccc1)N1CCC(c2ccc3c(c2)CN(C2CCC(=O)NC2=O)C3=O)CC1 (single isomer, unassigned) [Compound I-247]" measured_endpoint=DC50 reported="> 30 µM"
molecule="O=C1CCC(N2Cc3cc(C4CCCNCC4)ccc3C2=O)C(=O)N1 (single isomer, unassigned) [Compound I-167]" measured_endpoint=DC50 reported="> 50 µM"
molecule="Cn1ccc(CN2CCC(c3ccc4c(c3)CN(C3CCC(=O)NC3=O)C4=O)CC2)n1 (stereo not drawn) [Compound I-117]" measured_endpoint=DC50 reported="> 30 µM"
molecule="COc1ccccc1CN1CCC(c2ccc3c(c2)CN(C2CCC(=O)NC2=O)C3=O)CC1 (stereo not drawn) [Compound I-67]" measured_endpoint=DC50 reported="> 30 µM"
molecule="Nc1ncc(CN2CCC(c3ccc4c(c3)CN(C3CCC(=O)NC3=O)C4=O)CC2)cn1 (stereo not drawn) [Compound I-122]" measured_endpoint=DC50 reported="> 30 µM"
molecule="O=C1CCC(N2Cc3cc(C4CCN(Cc5ccccc5C5CC5)CC4)ccc3C2=O)C(=O)N1 (stereo not drawn) [Compound I-104]" measured_endpoint=DC50 reported="> 30 µM"
molecule="Cc1cccc(CN2CCC(c3ccc4c(c3)CN(C3CCC(=O)NC3=O)C4=O)CC2)c1 (stereo not drawn) [Compound I-173]" measured_endpoint=DC50 reported="> 30 µM"
molecule="O=C1CCC(N2Cc3cc(C4CCN(Cc5cc6n(n5)CCCC6)CC4)ccc3C2=O)C(=O)N1 (stereo not drawn) [Compound I-135]" measured_endpoint=DC50 reported="> 30 µM"
molecule="N#CCc1ccc(CN2CCC(c3ccc4c(c3)CN(C3CCC(=O)NC3=O)C4=O)CC2)cc1 (stereo not drawn) [Compound I-206]" measured_endpoint=DC50 reported="> 30 µM"
molecule="O=C1CCC(N2Cc3cc(C4CCN(Cc5ccc6c(c5)NCCS6)CC4)ccc3C2=O)C(=O)N1 (stereo not drawn) [Compound I-141]" measured_endpoint=DC50 reported="> 30 µM"
molecule="Cc1ccc2nc(CN3CCC(c4ccc5c(c4)CN(C4CCC(=O)NC4=O)C5=O)CC3)cc(=O)n2c1 (stereo not drawn) [Compound I-221]" measured_endpoint=DC50 reported="> 50 µM"
molecule="Cc1cc(C)cc(CN2CCC(c3ccc4c(c3)CN(C3CCC(=O)NC3=O)C4=O)CC2)c1 (stereo not drawn) [Compound I-159]" measured_endpoint=DC50 reported="> 50 µM"
molecule="O=C1CCC(N2Cc3cc(C4CCN(Cc5cccc(S(=O)(=O)N6CCOCC6)c5)CC4)ccc3C2=O)C(=O)N1 (stereo not drawn) [Compound I-236]" measured_endpoint=DC50 reported="> 25 µM"
molecule="O=C1CCC(N2Cc3cc(C4CCN(Cc5ccnn5-c5ccccc5)CC4)ccc3C2=O)C(=O)N1 (stereo not drawn) [Compound I-286]" measured_endpoint=DC50 reported="> 30 µM"
molecule="O=C1CCC(N2Cc3cc(C4CCN(Cc5cccc(OC(F)(F)F)c5)CC4)ccc3C2=O)C(=O)N1 (stereo not drawn) [Compound I-54]" measured_endpoint=DC50 reported="> 30 µM"
molecule="O=C1CCC(N2Cc3cc(C4CCN(Cc5cc6ccccc6[nH]5)CC4)ccc3C2=O)C(=O)N1 (stereo not drawn) [Compound I-136]" measured_endpoint=DC50 reported="> 30 µM"
molecule="CC(c1ccccc1)N1CCC(c2ccc3c(c2)CN(C2CCC(=O)NC2=O)C3=O)CC1 (single isomer, unassigned) [Compound I-230]" measured_endpoint=DC50 reported="> 30 µM"
